// provenance: patent US20020082264A1

Answer each item with its documented melting point.

What value of measured melting point is listed for N#CCCC1C(=O)c2ccc(-c3ccc(F)cc3)cc2OC12CCCCC2 (stereo not drawn) ?
61 to 63 °C

What value of measured melting point is listed for N#CCCC1C(=O)c2cc(F)c(F)cc2OC12CCCCC2 (stereo not drawn) ?
80 °C

What value of measured melting point is listed for Cc1cccc(-c2ccc3c(c2)OC2(CCCCC2)C(CCC#N)C3=O)c1 (stereo not drawn) [Example 76] ?
86 to 90 °C

What value of measured melting point is listed for O=C(O)CCC1C(=O)c2ccc(-c3ccccc3)cc2OC12CCCCC2 (stereo not drawn) ?
196 °C

What value of measured melting point is listed for N#CCCC1(CCC#N)C(=O)c2ccc(Br)cc2OC12CCCCC2 ?
145 to 149 °C

What value of measured melting point is listed for N#CCCC1(CCC#N)C(=O)c2ccc(-c3cccnc3)cc2OC12CCCCC2 ?
190 to 195 °C
